# System: HOP-92
# measurement protocol: NCI tumour cell line growth inhibition, 48 h
Activity calls are given as the source filed them. Cut-off read from the data, not from the text of the source: active = GI50 up to about 1.1 µM and inactive = higher.
Outcomes: active, inactive

> print(dat)
                                    compound  system.name     group
 1  CC1=NN(c2cccc(Cl)c2)C2(SCC(=O)N2c2nc3ccccc3s2)C1=CC=Cc1ccccc1 (stereo not drawn)       HOP-92  inactive
 2  CCNC(=O)c1cc(Cl)ccc1NC(=O)C12CC3CC(CC(C3)C1)C2       HOP-92  inactive
 3  Cc1cc(O)ccc1C1(c2ccc(F)cc2)OC(=O)c2ccccc21 (stereo not drawn)       HOP-92  inactive
 4              Cc1cc2c(C=O)n[nH]c2c(C#N)c1C       HOP-92  inactive
 5  CC(C)(C)[Si](C)(C)OCC1OC(n2cc(I)c(=O)[nH]c2=O)C(O[Si](C)(C)C(C)(C)C)C1O[Si](C)(C)C(C)(C)C (stereo not drawn)       HOP-92  inactive
 6  COc1cccc(C2N3CCCCC3[C@@H]3c4[nH]c5ccccc5c4CCN23)c1OC (stereo partly drawn)       HOP-92  inactive
 7  O=c1oc2ccc([N+](=O)[O-])cc2c(Nc2ccc3c(c2)Oc2ccccc2O3)c1[N+](=O)[O-]       HOP-92  inactive
 8  CCCCCCCCCCCCCC(=O)O[C@H]1CC[C@H](NC(=O)[C@H](OC)[C@H](O)[C@@H](O)[C@H](O)/C=C/C(C)C)C(=O)N(C)C1 [BENGAMIDE B]       HOP-92    active
 9  c1ccc2c(OCCSCCCCCCCCCCSCCOc3cccc4ccccc34)cccc2c1       HOP-92  inactive
10  COc1cc2c(/C=C3/C(=O)N(C)c4ccc(O)cc43)c(Cl)[nH]c2cc1C       HOP-92  inactive
11  O=C(CSC1=NC(=O)C2(NN1)c1ccccc1-c1ccccc12)NC(=S)Nc1ccccc1       HOP-92  inactive
12              Cc1n[nH]c(=O)n1/N=C/c1cccnc1       HOP-92  inactive
13  Cc1c2c(OCCN3CCCCC3)nn(C)c(=O)c2c(C)n1-c1ccccc1       HOP-92  inactive
14  O=S(=O)(O)Oc1cc2c(c(OS(=O)(=O)O)c1)C[C@H](OS(=O)(=O)O)[C@@H](c1ccc(OS(=O)(=O)O)c(OS(=O)(=O)O)c1)O2       HOP-92  inactive
15  COc1cccc(C2c3cc4c(cc3OC(NNS(=O)(=O)c3ccc(C)cc3)C2C)OCO4)c1O (stereo not drawn)       HOP-92  inactive
16  N=C(N)NCCCC(NCc1c2ccccc2nc2ccccc12)C(=O)O (stereo not drawn)       HOP-92  inactive
17  O=C(O)c1ccc(O)c(/N=N/c2cc(S(=O)(=O)O)c3ccccc3c2O)c1       HOP-92  inactive
18           COc1cc(/C=N/N=C(\N)NO)cc(Cl)c1O       HOP-92  inactive

----------
# Test system: UACC-257
# measurement protocol: NCI tumour cell line growth inhibition, 48 h
Active and inactive are the calls of the source. Cut-off read from the data, not from the text of the source: active = GI50 up to about 1.1 µM and inactive = higher.
# GI50 listing for each entry below
readout label: GI50

> print(dat)
                                    compound  readout.label       measured.value
 1  COc1ccc2c(O)c3[n+](cc2c1OC)CCc1cc2c(cc1-3)OCO2           GI50  > 100 µM (inactive)
 2  O=C1/C(=C/c2ccccc2)CN(C(=O)OCC(Cl)(Cl)Cl)C/C1=C\c1ccccc1           GI50   2.09 µM (inactive)
 3  CCOC(=O)N1c2ccccc2N(C(=O)OCC)C1CC(=O)/C=C/c1ccccc1           GI50   6.49 µM (inactive)
 4                    CCN(CC)/[N+]([O-])=N/O           GI50  > 100 µM (inactive)
 5            COc1ccc2cc3nc(O)cc(O)c3cc2c1OC           GI50  > 100 µM (inactive)
 6      Cc1cc(C)c2c(O)cc(-c3cccc(Cl)c3)nc2n1           GI50   1.95 µM (inactive)
 7  COC1(OC)c2no[n+]([O-])c2CCC1O (stereo not given)           GI50  > 100 µM (inactive)
 8  O=C(Nc1nc(C23CC4CC(CC(C4)C2)C3)cs1)c1c(O)c2ccccc2[nH]c1=O           GI50  > 100 µM (inactive)
 9  COc1cc(-c2cc(=O)c3c(OC)c(OC)c(OC)c(OC)c3o2)c(OC)c(OC)c1OC           GI50   42.3 µM (inactive)
10  O=C(CCc1cc(-c2ccccc2)[nH]c(=S)n1)Nc1ccccc1[N+](=O)[O-]           GI50  > 100 µM (inactive)
11      COC1=C(N=[N+]=[N-])C(=O)c2ncccc2C1=O           GI50   4.34 µM (inactive)
12  CC(=O)OCC1(C)C(O)CCC2(C)C1CCC1CC3CC12CCC3(O)CO (stereo not given)           GI50  > 100 µM (inactive)
13  COC(=O)C(=O)C(C(=O)C(=O)Nc1ccc(F)cc1)c1nc2ccc([N+](=O)[O-])cc2nc1O (stereo not given)           GI50  > 100 µM (inactive)
14  COC(=O)c1cccc(COc2ccc([N+](=O)[O-])cc2Cl)c1           GI50  > 100 µM (inactive)
15        O=C(NNC(=S)Nc1ccccc1)c1nsc2ccccc12           GI50   33.3 µM (inactive)

All figures here come from ChEMBL document CHEMBL1201862.
